- Assay Comment: soluble fraction after stress (log2 fold change); higher = more stays soluble; pooled small domains, quantitative proteomics
- Particulars: stress: 50 degC
Quantity: soluble fraction (log2)
Give bare numbers.

HMLLQTRQRHEALAALGYFKGDVAAAWGPASEEALRAAQAAFGITVDGKWGPQTEDAIQGALQV :: -0.213
HMTVTMADISQAYNEKRYLTTISLSNTYLTFAKPTTELLSIRYRTYFIIGKYAESLTEIAKL :: -0.173
HMATNVLEISTRNKNILIQDSLNLVESFYSKSDNQYWYKLVFKTKDDLNKFLQEVSEDENTITYKTSSI :: 0.217
HMGMKTSQKLARQREIVRLIRAQTIRTQAELADALRERAFPVSQPTLSKDIAELGLIKVPLPDSGYRYQLP :: -0.378
HMKEINFTIEESAKGRLDKVIAENVADLTRSQVQSLIKKGQILVNDAPTTNRYQVKPNDQVIIKLPDPV :: 0.339

I would be grateful if you could provide soluble fraction (log2) for each of the following entries.
1. HMEYDYKVIDFFKDYYSYLNYQEIEPNILDKQLTTLTEEESAKIAGIMKLDYEDFTRGIEIVTGS
2. HMTTPAAISKIKKLEEAKRLLATTTYSMKEIAVKLKYKSHTHFGMDFKNNTGMTPAEYRKAIKAKREKQMN
3. HMRDFTQPQTASIGPRMREALARGTMTVEELREQFRTQEFPHESVRTAFLEELERVAAELGLA

1: -0.195; 2: -0.0571; 3: -0.0676

====

- Assay Comment: soluble fraction after stress (log2 fold change); higher = more stays soluble; pooled small domains, quantitative proteomics
- Particulars: stress: 50 degC
Quantity: soluble fraction (log2)
Give bare numbers.

Here's what some known entries look like.
HMNLGLTGDPSVLYSILLQRGDSSRADLQRQTGWSLSKTTLVLNQLLAQKLIVQVGAGRSTQYRVIN :: -0.983
HMAGFGDSLEKMSDAVEALKLLMSTEDARNDQNIQKIARELKDVFNKYRTHLRKSYPDQYDRIKSTL :: -0.299
HMKSEMYIDLSNALLKMSERDKELLTYRYTMEMSSKEISQITGIKESNVNSYIRRAREKLLKIFNAMNK :: -3.04

Requested field: soluble fraction (log2). Item: HMGAVGISQKVTSLETAVLGKNFAKDPLIDRVARLEQTVLPKQAEANASLSLPERVSKLLEKVPIAAG
0.223

====

Exercise: for every item that follows, state its recorded soluble fraction (log2).
- Assay Comment: soluble fraction after stress (log2 fold change); higher = more stays soluble; pooled small domains, quantitative proteomics
- Particulars: stress: 50 degC
Give bare numbers.

Below, each entry is followed by its recorded soluble fraction (log2) result.
HMDPTHDMHFLVKDQVTGQPLPNMPYRLQLDNGQTLTGRTDALGMTEKISGHSPHIASIEVPY :: 0.18
HMKVVEKHIVPQIQNPIRLQEYASSIFKTITTRSGIKKAIKKQLILLNRKPANTGDWIKEGQLLELLAEE :: -0.242
HMDSLSLTELRIDSASPWIGNRISDFSPYAGELVIMIIRGEETIVPNGDTIILDKDLLVIYSS :: -2.18
HMSELDASYLGQRVRYVSGFTETDPSEGLVEFRGSNWRARAEHPPLDHSGHWVIVKVESNTLWVEEKSN :: -0.22
HMIKRNPLDEIEGVGPGRKKALLHAFGSAKGVSRASVVDLVKVEGVSQALAERIHDFFHPATR :: -0.113

Quick one: give me soluble fraction (log2) for each item below, same order please.
1. HMKEEDLPREYTDILGNSVHERLNIMIHDIIEHSQDKPEVAMSPEREEAMHGLRRWMFDHVYH
2. HMKTGNPYAQRNTADMYNYGRGIEKDSYLAFVWYFAAYKQGNDNAKPQIDSITASGHLSPNQQLHAKIE
3. HMKVQEVDYGTFLTMVDEGKVNQVDIENSKQITFNTKGDKNKVYITGQVNDPELVNRLYKAGVEFSQEIP
4. HMAVLFFVKRGERILGPTRLADLFQHAASGRLRANDLVGESPKGPWLPARQLDELEDAWASSRDATEAAAA
5. HMTKQMELLAQGAAKLSVDLNQRQLDQLQTYYRELVDWNQRMNLTAITQYEEVQVKHFLDSL
6. HMNPETLTNGSVVKMSKANLSDELIIDMINNSPARFDLSSGALRSLEGEGVSKAVIESMKRATSG

-0.202
-0.464
0.0729
0.251
-0.0986
0.191

Hi team, please reply with soluble fraction (log2) for each item in this list.
1. HMDAPKTGSLVVSKAVNYGSWSGFTFRLHGTSDKGNSVDVTATTGSDGKAYFKDIEIGTYTLEEVN
2. HMLAAGTPLTVVTESSNLNIRQEPSTEAAVVGKAAKGEIVTLVEQTSGEWWKVSTKDGEEGYAYSRYL
3. HMQSNDTAEIEAVVKEIMAANERVVNDYRSGNTKVVSFFVGQVMKATKGKANPKVVNEVLAKLLK
4. HMDIAATTVKQKIRTLLADEDAARPLSDQKIADALAEDGIDVARRTVAKYREELGIEPSWARKR

-0.387
0.341
0.0929
0.0398

// for each sequence in input: emit soluble fraction (log2)
1. HMSLEEQNGAKDRQVEAYELLLKAQRALDQEDTAGFQAAMKDLEPLSSQLDAQGQTLYHELLPFVS
2. HMYMKGKVKWFDSKKGYGFITSENGKEIFVHFSGIAAKGFKSLNEGQTVEFEVANGAKGEQAVNVTV

1. -0.0812
2. -0.804
